Below, each entry is listed alongside its reported inhibition.
# Target Or System: Glucose transporter (Leishmania mexicana)
# Test Name: ST_JUDE_LEISH: Cytotoxicity at 2uM final concentration against transgenic Leishmania Mexicana promastigotes LmGT2 that are glucose transport deficient and complemented with the L. Mexicana glucose transporter 2. Activity is measured by DNA content using SYBR green in vitro
# Format: functional

Compound	inhibition (%)
CC(C)CNCc1cccc(-c2cccc(CN(CCN(C)C)C(=O)NCCc3ccccc3)c2)c1	-4.18
O=C(N[C@@H](CC1CCCCC1)C(=O)NC1CCCc2ccccc21)c1ccc(O)c(-c2cccc(C(F)(F)F)c2)c1 (stereo not given in full)	2.66
Cc1ccc(-n2cc(CNCCCn3ccnc3)c(-c3cccc(C)c3)n2)cc1	3.71
Cc1cc(NCCC(=O)NCCOc2ccccc2)nc(NCCc2ccccc2)n1	0.66
Oc1c(CN2CCCC(C(F)(F)F)C2)cc(Cl)c2ccccc12 (stereo not given)	3.06
COc1ccc(NC(=O)[C@H](CC(C)C)Nc2cc(C)nc(NCc3cccc(C)c3)n2)cc1	7.22
O=C(Nc1cccc(-c2ccc(-c3nc4ccccc4[nH]3)cc2)c1)c1cnn2cccnc12	-0.33
Cc1cc(-c2ccc3c(c2)CCN(CCC2CCC(NC(=O)/C=C/c4ccccc4F)CC2)CC3)on1 (stereo not given)	12.2
Clc1ccc2c(NCc3ccccc3)ccnc2c1	-0.97
c1ccc2c(Nc3ccc(Oc4ccc(Nc5c6ccccc6nc6ccccc56)cc4)cc3)c3ccccc3nc2c1	-1.82

###

# Target Or System: Solute carrier family 2, facilitated glucose transporter member 1 (Homo sapiens)
# Test Name: ST_JUDE_LEISH: Cytotoxicity at 2uM final concentration against transgenic Leishmania Mexicana promastigotes LmGLUT1 that are glucose transport deficient and complemented with the human glucose transporter GLUT1. Activity is measured by DNA content using SYBR green in vitro
# Format: functional
Test Readout: inhibition (%)

Molecule	Uom	Result
COc1ccc(NC(=O)NC2CCN(CCCOc3ccnc4cc(Cl)ccc34)C2)cc1OC (stereo unspecified)	%	-0.88
O=S(=O)(c1ccc(OC(F)(F)F)cc1)C1CC2CCC(C1)N2S(=O)(=O)c1ccc(Cl)c(C(F)(F)F)c1 (stereo unspecified)	%	11.6
COc1ccc(Cn2c(Nc3cccc(C(F)(F)F)c3)nc3cc(C(=O)NC4CC4)cnc32)cc1Cl	%	-1.9
C=CCc1cc(SC)ccc1Oc1ccc(N)cc1	%	1.84
COc1ccc(CCN2CCC(NCc3cccc(N(C)C)c3)CC2)cc1	%	-2.94
CC(=NNC(S)=NCCc1ccccc1)c1ccccn1	%	57.4

###

# Target Or System: Solute carrier family 2, facilitated glucose transporter member 1 (Homo sapiens) (UniProt P11166)
# Sequence (P11166 whole entry): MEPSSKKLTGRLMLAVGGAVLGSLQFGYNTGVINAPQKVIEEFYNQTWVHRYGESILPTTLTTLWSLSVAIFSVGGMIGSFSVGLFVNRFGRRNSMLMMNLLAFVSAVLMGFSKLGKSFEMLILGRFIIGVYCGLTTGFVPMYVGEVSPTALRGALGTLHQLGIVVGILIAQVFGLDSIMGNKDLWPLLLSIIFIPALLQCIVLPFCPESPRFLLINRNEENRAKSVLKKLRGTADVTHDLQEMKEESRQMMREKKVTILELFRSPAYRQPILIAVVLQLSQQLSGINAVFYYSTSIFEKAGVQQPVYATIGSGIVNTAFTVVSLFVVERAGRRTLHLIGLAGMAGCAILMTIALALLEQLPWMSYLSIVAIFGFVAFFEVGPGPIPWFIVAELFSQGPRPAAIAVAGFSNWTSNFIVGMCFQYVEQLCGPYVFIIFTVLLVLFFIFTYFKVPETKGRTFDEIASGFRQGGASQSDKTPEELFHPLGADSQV
# Test Name: ST_JUDE_LEISH: Cytotoxicity at 2uM final concentration against transgenic Leishmania Mexicana promastigotes LmGLUT1 that are glucose transport deficient and complemented with the human glucose transporter GLUT1. Activity is measured by DNA content using SYBR green in vitro
# Format: functional
Test Readout: inhibition (%)

Compound	Result
OC(CNc1ccnc(Nc2cccc(Cl)c2)n1)c1cccc(F)c1 (centres undefined)	3.71
Cc1ccc2c(c1)c(C1CCN(C(=O)c3ccc([N+](=O)[O-])o3)CC1)cn2C	8.36
CN1CCCN(Cc2cccc(-c3ccc(NS(=O)(=O)c4cccc5cccnc45)cc3)c2)CC1	1.84
CCOC(=O)C(C)(C)Oc1ccc(C(=C2CC(C)(C)CC(C)(C)C2)c2ccc(O)cc2)cc1	4.11
CCCS(=O)(=O)N1CCC(CO)(Cc2ccccc2C(F)(F)F)CC1	2.81
O=C(NC1CCN(CCC[C@]2(c3ccc(Cl)c(Cl)c3)CCCN(C(=O)c3ccccc3)C2)CC1)c1ccc(Cl)cc1	-0.59
COCCNCc1ccc(-c2cccc(CN(C(=O)NCCc3ccccc3)C3CCN(Cc4ccccc4)CC3)c2)cc1	1.13
CCC1CCCCN1S(=O)(=O)c1ccc(OC)c(N2CCN(C(=O)C(Cl)(Cl)Cl)CC2)c1 (centres undefined)	4.89
COc1ccc2c(ccc3c2ncc2c(=O)n(-c4ccccc4)[nH]c23)c1	-1.88

###

# Target Or System: Hexose transporter 1 (Plasmodium falciparum)
# Test Name: ST_JUDE_LEISH: Cytotoxicity at 2uM final concentration against transgenic Leishmania Mexicana promastigotes LmPfHT that are glucose transport deficient and complemented with the Plasmodium falciparum hexose transporter. Activity is measured by DNA content using SYBR green in vitro
# Assay type: functional
Test Readout: inhibition

Compound	Result
O=S(=O)(Nc1cccc(CCN2CCCCC2CCN2CCCC2)c1)c1ccc2ccccc2c1 (centres undefined)	-0.31%
CCNC(=O)c1ccc(-n2nc(C)cc2-c2ccccc2)cc1	3.31%
COc1ccc2ccccc2c1C=NNc1ccnc2cc(Cl)ccc12	0.95%
Cc1nnsc1C(=O)Nc1cccc(-c2cccc(-c3nc4cc(F)ccc4[nH]3)c2)c1	0.05%
COc1ccc(Cl)cc1N1CCN(CCCNC(=O)c2ccc(-c3nc4cc5ccccc5cc4[nH]3)c(F)c2)CC1	3.41%
C[C@H](Cc1ccc(C[C@@H](C)NC[C@H](O)c2cccc(Cl)c2)cc1)NC[C@H](O)COc1ccccc1	1.95%
Cn1nc(-c2cccc(CN[C@@H]3CCc4ccc(O)cc43)c2)c2cnc(NC3CCCC3)nc21	3.87%
O=C(c1cc(C(=O)Nc2ccccc2F)c(=O)n(-c2ccccc2F)c1)c1cc(Cl)ccc1O	-0.63%
COc1cccc(CNC(=O)c2cccc(-c3ccc(CN4CCC(N5CCCC5)CC4)cc3)n2)c1	5.46%
c1ccc(Cn2nnnc2-c2cccc(Nc3ccnc4cc(-c5nccs5)ccc34)c2)cc1	2.17%
CN1CCN(C(C(=O)NCc2cc(Cl)cc(Cl)c2)c2ccccc2-c2ccsc2)CC1 (centres undefined)	5.51%
COc1cc2nc(Nc3ccc4c(cnn4Cc4ccccc4)c3)nc(Nc3ccc4c(cnn4Cc4ccccc4)c3)c2cc1OC	2.44%
O=C(N[C@@H](Cc1ccccc1)C(=O)NCc1cccc(C(F)(F)F)c1)c1ccc(O)c(-c2ccc(Cl)c(Cl)c2)c1	0.97%
COc1c(CN2CCCC2)cccc1-c1cc2c(-c3ccc(C(=O)O)c(C(C)C)c3)ccnc2[nH]1	2.05%
CN(C)CC1CCCN1Cc1ccccc1-c1cnn(C)c(=O)c1Oc1ccc(F)cc1 (centres undefined)	4.08%
O=C(NCCCc1ccccc1)c1csc(C2CCCN(C(=O)c3ccc(O)c(-c4ccccc4)c3)C2)n1 (centres undefined)	0.46%
Cc1ccc(Nc2nc(C)cc(N3CCN(c4ccccc4)CC3)n2)cc1	5.92%
N#Cc1ccc(CN2CCCN(Cc3cccc(NC(=O)c4ccc(Cl)c(Cl)c4)c3)CC2)cc1	7.09%
Cc1cccc2nc(-c3ccc(-c4ccc(NC(=O)Nc5ccc(F)c(F)c5F)cc4)cc3)[nH]c12	8.02%

###

Below, each entry is listed alongside its reported inhibition.
# Target Or System: Solute carrier family 2, facilitated glucose transporter member 1 (Homo sapiens)
# Test Name: ST_JUDE_LEISH: Cytotoxicity at 2uM final concentration against transgenic Leishmania Mexicana promastigotes LmGLUT1 that are glucose transport deficient and complemented with the human glucose transporter GLUT1. Activity is measured by DNA content using SYBR green in vitro
# Assay type: functional

Structure	Uom	inhibition
O=C(c1ccc(-c2ccc(Cl)cc2)o1)N1CCc2cc3nccc(N4CCN5CCC[C@H]5C4)c3cc21	%	-1.09
CC(C)N1CCC(NC(=O)N2CCCN(c3ncnc4cc(-c5ccccc5)sc34)CC2)CC1	%	2.91
CCCCCCOc1ccccc1C(=O)NCCOc1ccc(Cl)cc1	%	3.58
CN(C)c1ccc2c(c1)Sc1cc(N(C)C)ccc1N2C(=O)c1cccc(C(=O)O)c1	%	-1.08
COc1ccc2nccc([C@@H](O)CN3CCC(c4cc(-c5ccc(Cl)cc5)[nH]n4)CC3)c2n1	%	64.9
CC(C)C[C@H](NC(=O)c1ccc(OCCN2CCOCC2)cc1)C(=O)N[C@H](/C=N/N(C)C(=O)c1ccccc1)CCc1ccccc1	%	3.84
FC(F)(F)c1cc(CNCCCNc2nc3ccncc3[nH]2)ccc1Cl	%	1.9
CCc1cccc(-n2c(=O)c3cccnc3n2CC(=O)NCc2ccccc2Cl)c1	%	9.08
O=[N+]([O-])c1cccc(CNCC2CCN(Cc3ccc(O)cc3)CC2)c1	%	21.4

###

# Target Or System: Hexose transporter 1 (Plasmodium falciparum) (UniProt O97467)
# Test Name: ST_JUDE_LEISH: Cytotoxicity at 2uM final concentration against transgenic Leishmania Mexicana promastigotes LmPfHT that are glucose transport deficient and complemented with the Plasmodium falciparum hexose transporter. Activity is measured by DNA content using SYBR green in vitro
# Format: functional

Compound	inhibition [%]
Oc1cc(NC[C@H]2CCC[C@@H]2NCc2cc(Br)cc(Br)c2)nc2ccccc12	4.07
CCOc1cc2ncnc(Nc3cc(Cl)c(Cl)c(Cl)c3)c2cc1OCC	1.95
COc1cc(Br)c(NC(=O)Nc2ccc(C(F)(F)F)c(O[C@@H]3CCN(C)C3)c2)cc1OC	2.26
CCNc1cc(C(=O)N[C@@H](Cc2ccccc2)[C@H](O)CNC23CCC(CC2)C3)cc(N2CCCCS2(=O)=O)c1	-1.58
NS(=O)(=O)c1cccc(-c2ccc3c(O)ncnc3c2)c1	3.82
Cc1cccc2nc(-c3ccc(-c4cccc(NCc5cn6cccnc6n5)c4)cc3)[nH]c12	0.59
Cc1noc(C)c1-c1ccc(C(=C2CCCCCC2)c2ccc(O)cc2)cc1	3.88
CC(CN1CCN(C)CC1)C(=O)Nc1ccc(-c2cccc(-c3nc4cc(C(F)(F)F)ccc4[nH]3)c2)cc1 (stereo not given)	0.32
CC(C)N(CCOc1ccc2c(c1)N(C(=O)Nc1cc(Br)cc(C(F)(F)F)c1)CC2)C(C)C	2.23
CCCCCCNC(=O)C1Cc2c([nH]c3ccc(F)cc23)C2(CCN(Cc3ccccc3)CC2)N1 (stereo not given)	9.28
O=C(Nc1cccc(CN2CCN(Cc3cccc(O)c3)CC2)c1)c1cc2ccccc2s1	3.45
Cc1nn(C)c(C)c1CN(Cc1nc(-c2cccc(Oc3ccccc3)c2)oc1C)C1CC1	4.11
COc1cc(N)c(Cl)cc1C(=O)NCC1CCN(c2nc(C)cc(C)n2)CC1	0.61
O=C(Nc1ccc(Cn2ncc(N3CCCNCC3)c(Cl)c2=O)cc1)Nc1cccc(C(F)(F)F)c1	1.58
CCCCCC(=O)N1CCOC(CCN2CCC(c3ccccc3)CC2)(c2ccc(Cl)c(Cl)c2)C1 (stereo not given)	3.27
Nc1nc(N)c2c3c(ccc2n1)CCC3	1.48
Cc1ccc(-c2csc(C)n2)c(C)c1	2.19
COC(=O)Nc1ccc(-c2ccc(C(=O)NC3CCN(C[C@H](O)c4ccnc5ccc(OC)cc45)CC3)cc2)c(C)c1	0.01
COc1nc2c(N3CCN(CCNCc4ccc5c(n4)NC(=O)CO5)CC3)ccnc2cc1F	2.44
O=C(Nc1cccc(-c2ccc(-c3nc4cc(C(F)(F)F)ccc4[nH]3)cc2)c1)Nc1ccc(F)c(F)c1F	0.2
COc1ccc(-c2ccc(NC(=O)c3ccc(Cl)cc3)cc2)cc1CN(C)CCN(C)C	4.95
Cc1[nH]c2ccc(-c3ccc(N(C)C)cc3)cc2c(=O)c1Cl	3.7
c1ccc(-n2ncc(CNCc3ccc(-c4cccc(-c5nc6ccccc6[nH]5)c4)cc3)n2)cc1	1.26
Nc1ncc(-c2ccc3[nH]ccc3c2)c2ccc(-c3ccncc3)cc12	10.2
O=C(NCCCc1ccccc1)c1csc(C2CCCN(C(=O)c3ccc(O)c(-c4cccc5ccccc45)c3)C2)n1 (stereo not given)	-0.18
Cc1cc(N[C@@H](Cc2ccccc2)C(=O)NCc2cccc(F)c2)nc(NCC2CCCCC2)n1	2.51
CC(C)NCc1cc(Nc2ccnc3cc(Cl)ccc23)ccc1O	1.48
CCC(C)c1ccc(NC(=O)Nc2ccnc3ccccc23)cc1 (stereo not given)	6.23
Cc1cc(CN2CC[C@H](NC(=O)c3ccc(Cl)c(Cl)c3)C2)ccc1OCCCN(C)C	-3.17
COc1ccc2c(=O)c(I)c(C)[nH]c2c1	-1.12
CCCCCCOc1ccccc1C(=O)NCCOc1ccc(Cl)cc1	-1.45
O=C(Nc1nc2cc(S(=O)(=O)NCCc3cccc(F)c3)ccc2n1CCCn1ccnc1)c1ccc(Cl)cc1	0.32
COC(=O)c1cccc(CNCc2ccc(-c3ccc(-c4nc5ccccc5[nH]4)s3)cc2)c1	9.04
O=C(NC1CCCCN(Cc2ccc3c(c2)OCCO3)C1)c1cc(-c2ccccc2F)cs1 (stereo not given)	16.4
CCc1c(CCNCCCCCNCCc2ccc(OC)c(OC)c2CC)ccc(OC)c1OC	5.75
CCOC(=O)c1ccc(NC(=O)N[C@@H](Cc2ccccc2)C(=O)NC2CCN(Cc3ccc(O)c(OC)c3)C2)cc1 (stereo not given in full)	-1.29
COc1ccc(Nc2nccc(NCC(O)c3ccc(C(F)(F)F)cc3)n2)cc1 (stereo not given)	5.27
COc1ccc(CCON2C(=N)N=C(N)NC2(C)C)cc1OC	2.62
CCCCCCN1CCC(NCc2cccc3ccccc23)CC1	12.1
CN(C)CCNCc1ccc(-c2ccc3c(Nc4ccc(Cl)cc4F)ccnc3c2)o1	0.82
